Numbers sourced from the supplement of paper PMC9112550.

# System: Escherichia coli TOP10;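 further: peptides expressed intracellularly from a pBAD plasmid library in pooled LB shake-flask culture, induced with 0.3% L-arabinose, DNA abundance read by NGS, three biological replicates, DESeq2 with apeglm shrinkage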
# assay_comment: shrunken log2 fold change of peptide-encoding DNA abundance (4.5 h post-induction vs induction); higher = less antimicrobial activity (less host growth inhibition)
# assay_conditions: time post-induction: 4.5 h; library: site-saturation at positions 5, 18, 19, 20
The sequences listed here are annotated with their shrunken log2 fold change.
measurement_name: shrunken log2 fold change

- RRIRKRPPRLPRPRPRPVFMPRP: 0.138
- RRIRVRPPRLPRPRPRPCIRPRP: -0.198
- RRIRLRPPRLPRPRPRPTKDPRP: -0.183
- RRIRPRPPRLPRPRPRPYLSPRP: -0.509
- RRIRGRPPRLPRPRPRPPCGPRP: 0.554
- RRIRTRPPRLPRPRPRPKTNPRP: -0.157
- RRIRCRPPRLPRPRPRPKPLPRP: 0.12
- RRIRYRPPRLPRPRPRPQIFPRP: 0.0295
- RRIRFRPPRLPRPRPRPTGAPRP: 0.257
- RRIRERPPRLPRPRPRPPFIPRP: -0.299
- RRIRVRPPRLPRPRPRPHDPPRP: 0.0847
- RRIRHRPPRLPRPRPRPFISPRP: -0.387
